Biological target: T1, Cynomolgus/Rhesus macaque FOLR1 Protein, His Tag (ACRO, F01-C52H8) (cynomolgus, UniProt A0A2K5U044 25-233)
T1 construct: also called cynomolgus FOLR1 protein; not shown: His tag
T1 sequence (A0A2K5U044 entry or part of it): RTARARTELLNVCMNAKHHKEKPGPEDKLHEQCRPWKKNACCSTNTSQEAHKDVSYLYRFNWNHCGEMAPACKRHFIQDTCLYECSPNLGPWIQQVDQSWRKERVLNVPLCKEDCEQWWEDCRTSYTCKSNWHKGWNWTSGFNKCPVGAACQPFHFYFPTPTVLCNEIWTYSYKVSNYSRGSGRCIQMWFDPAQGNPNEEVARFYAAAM
Experiment: ELISA, supernatant diluted 5x
measured metric: OD450
Answer with a bare number; do not write a unit.

Q. Give the measured OD450 of F100 (antibody, V domains shown, also called clone F100; anti-FOLR1 antibody F100) VH: EVQLLESGGGVVQPGRSLRLSCAASGFTFSSYGMHWVRQAPGKGLEWVAVISYDGSNKYYADSVKGRFTISRPNSKNTLYLQMNSLRAEDTAVYYCARPRAYYGAYGSSFDYWGQGTQVTVSS VL: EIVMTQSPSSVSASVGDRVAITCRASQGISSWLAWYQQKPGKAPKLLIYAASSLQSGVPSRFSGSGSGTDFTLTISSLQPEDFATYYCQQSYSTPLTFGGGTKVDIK .
A. 1.03
